Overview of recorded glycan array binding signal (z-score) for various binders
Molecular target: Gal(a1-4)Gal(b1-4)Glc
Experiment: glycan array binding signal (z-score within array); higher = stronger binding
Settings: glycan notation: IUPAC condensed, linker removed
Shown is part of a subset that was picked to be rich in the strongest signals.

// worked examples, glycan array binding signal (z-score) included
binder | result
F17eG (Escherichia coli), Q9RH92 (protein) MTNFYKVFLAVFILVCCNISHAAVSFIGSTENDVGPSQSSYSRTHAMDNLPFVYNTGYNIGYQNANVWRISGGFCVGLDGKVDLPVVGSLDGQSIYGLTEEVGLLIWMGDTNYSRGTAMSGNSWENVFSGWCVGNYVSTQGLSVHVRPVILKRNSSAQYSVQKTSIGSIRMRPYNGSSAGSVQTTVNFSLNPFTLNDTVTSCRLLTPSAVNVSLAAISAGQLPSSGDEVVAGTTSLKLQCDAGVTVWATLTDATTPSNRSDILTLTGASTATGVGLRIYKNTDSTPLKFGPDSPVKGNENQWQLSTGTETSPSVRLYVKYVNTGEGINPGTVNGISTFTFSYQ | -0.293
LecB PA14 (Pseudomonas aeruginosa) (protein) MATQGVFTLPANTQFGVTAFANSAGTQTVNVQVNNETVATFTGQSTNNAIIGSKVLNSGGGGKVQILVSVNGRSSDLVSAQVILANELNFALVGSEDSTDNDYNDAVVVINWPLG | -0.633
SefD (Salmonella enterica), Q9L6K6 (protein) GAYIIRGQNNSAHKLRIRIGGEDWQPDNSGIGMVSHSDFTNEFNIYYFGNGDIPVDTYLISIYATEIEL | -0.442

// below: glycan array binding signal (z-score) requested for another binder
The binder FaeGac (Escherichia coli) (protein) WMTGDFNGSVDIGGSITADDYRQKWEWKVGTGLNGFGNVLNDLTNGGTKLTITVTGNKPILLGRTKEAFATPVTGGVDGIPHIAFTDYEGASVVLRNPDGETNKKGLAYFVLPMKNAEGTKVGSVKVNASYAGVLGRGGVTSADGELLSLFADGLSSIFYGGLPRGSELSAGSAAAERTKLFGSLSRNDILGQIQRVNANITSLVDVAGSYRENMEYTDGTVVSAAYALGIANGQTIEATFNQAVTTSTQWSAPLNVAITYY showed glycan array binding signal (z-score) equal to -0.179
